Each entry below lists one item and its recorded IC50 value.
- assay_target: SUV39H2 (Homo sapiens (Human))
- Sequence (Q9H5I1 whole entry): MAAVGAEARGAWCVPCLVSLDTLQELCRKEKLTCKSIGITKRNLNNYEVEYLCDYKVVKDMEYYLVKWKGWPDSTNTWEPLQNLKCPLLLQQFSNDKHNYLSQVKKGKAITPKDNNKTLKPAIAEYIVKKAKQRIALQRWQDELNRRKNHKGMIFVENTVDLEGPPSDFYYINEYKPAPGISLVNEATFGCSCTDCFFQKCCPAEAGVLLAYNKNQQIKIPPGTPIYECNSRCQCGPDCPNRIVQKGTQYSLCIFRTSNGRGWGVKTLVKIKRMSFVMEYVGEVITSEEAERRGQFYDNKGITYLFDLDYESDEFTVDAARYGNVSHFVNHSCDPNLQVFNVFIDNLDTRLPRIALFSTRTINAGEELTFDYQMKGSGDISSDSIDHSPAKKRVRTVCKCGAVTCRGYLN
- method: biochemical
- Assay type: biochemical
- reported_conditions: 3H-SAM 100 nM, H3 Histone Peptide 350 nM, room temperature 3 hours
Structures can show the parent of a compound that is named as a salt.
The answer is to be given in nM; state only the numeric part.

Example entries begin here.
>>> test_value("COc1cc(OC)c(-c2cn3ccc(N[C@H]4C[C@H]5CC[C@@H](C4)N5CC4CCCCC4)cc3n2)cc1Cl")
88.7
>>> test_value("COc1cc(OC)c(-c2cn3ccc(N4CCN(c5nccc(N6CCCC(O)C6)n5)CC4)cc3n2)cc1Cl (centres unmarked)")
66.5
>>> test_value("COc1cc(OC)c(-c2cn3ccc(N4CCN(c5cc(N6CCN(C)CC6)ncn5)CC4)cc3n2)cc1Cl [Example 377, dihydrochloride]")
14.4

# query: IC50 of entry COc1cc(OC)c(-c2cn3ccc(N4CC[C@H](NC(C)C5CCN(C(=O)OC(C)(C)C)CC5)C4)cc3n2)cc1Cl (some centres unmarked)
57.9

# query: IC50 of entry COc1cc(OC)c(-c2cn3ccc(N4CCN(c5nc(N)nc(N6CCC(N(C)C)C6)n5)CC4)cc3n2)cc1Cl (centres unmarked)
11.7

# query: IC50 of entry `COc1cc(OC)c(-c2cn3ccc(N4CCC(C(=O)Nc5ccccc5)CC4)cc3n2)cc1Cl`
25.5

# query: IC50 of entry `COc1cc(OC)c(-c2cn3ccc(N4CCCN(c5ncccn5)CC4)cc3n2)cc1Cl`
15.7

# query: IC50 of entry `COc1cc(OC)c(-c2cn3ccc(N[C@H]4C[C@H]5CC[C@@H](C4)N5CC(C)(C)C)cc3n2)cc1Cl`
42.6

# query: IC50 of entry COc1cc(OC)c(-c2cn3ccc(N[C@H]4CC[C@@H](NCc5cccc(F)c5)CC4)cc3n2)cc1Cl [Example 402, bis(2,2,2-trifluoroacetate)]
18.7

# query: IC50 of entry COc1cc(OC)c(-c2cn3ccc(N[C@H]4CC[C@@H](N(C)Cc5ccccc5C)CC4)cc3n2)cc1Cl [Example 348, bis(2,2,2-trifluoroacetate)]
31.2

# query: IC50 of entry COc1cc(OC)c(-c2cn3ccc(N4C[C@H](NCc5ccncc5)[C@@H](O)C4)cc3n2)cc1Cl (relative stereo)
6.76

---

Each entry below lists one item and its recorded log10 of IC50 value.
- Tested on: PC14
- method: Cell-based assay, anti-proliferative activity (Cell Counting Kit-8, 72 hours)
- reported_conditions: Homo sapiens, PC-14, 72 h, read-out: IC50 (μM) PC14
Where a name gives a salt, the structure may show the parent alone.
Hey, these are logged values: log10 of IC50, µM being the unit before logging.

Example entries begin here.
>>> test_value("COc1cc(OC)c(-c2cn3ccc(N4CCCC4)cc3n2)cc1C#N")
0.11
>>> test_value("COc1cc(OC)c(-c2cn3ccc(N4CCN(P(=O)(OC)OC)CC4)cc3n2)cc1Cl")
0.26

# query: log10 of IC50 of entry CNCC(=O)Nc1ccc(-c2ccn3cc(-c4cc(Cl)c(OC)cc4OC)nc3c2)cc1 [Example 273, hydrochloride]
0.04

# query: log10 of IC50 of entry `COc1cc(OC)c(-c2cn3cc(NCCN)c(N4CCCC4)cc3n2)cc1Cl`
0.41

# query: log10 of IC50 of entry CNc1ccn2cc(-c3cc(Br)c(OC)cc3OC)nc2c1 [Example 11, hydrobromide]
-0.06

# query: log10 of IC50 of entry `COc1cc(OC)c(-c2cn3ccc(N4CCN(P(=O)(OC)OC)CC4)nc3n2)cc1Cl`
0.53

# query: log10 of IC50 of entry COc1cc(OC)c(-c2cn3ccc(N4CCN(CCO)CC4)cc3n2)cc1Cl [Example 43, dihydrochloride]
0.99
